# assayed-target: human recombinant DPP-IV (Homo sapiens)
# Construct: purchased ProSpec
# Sequence (P27487 whole entry): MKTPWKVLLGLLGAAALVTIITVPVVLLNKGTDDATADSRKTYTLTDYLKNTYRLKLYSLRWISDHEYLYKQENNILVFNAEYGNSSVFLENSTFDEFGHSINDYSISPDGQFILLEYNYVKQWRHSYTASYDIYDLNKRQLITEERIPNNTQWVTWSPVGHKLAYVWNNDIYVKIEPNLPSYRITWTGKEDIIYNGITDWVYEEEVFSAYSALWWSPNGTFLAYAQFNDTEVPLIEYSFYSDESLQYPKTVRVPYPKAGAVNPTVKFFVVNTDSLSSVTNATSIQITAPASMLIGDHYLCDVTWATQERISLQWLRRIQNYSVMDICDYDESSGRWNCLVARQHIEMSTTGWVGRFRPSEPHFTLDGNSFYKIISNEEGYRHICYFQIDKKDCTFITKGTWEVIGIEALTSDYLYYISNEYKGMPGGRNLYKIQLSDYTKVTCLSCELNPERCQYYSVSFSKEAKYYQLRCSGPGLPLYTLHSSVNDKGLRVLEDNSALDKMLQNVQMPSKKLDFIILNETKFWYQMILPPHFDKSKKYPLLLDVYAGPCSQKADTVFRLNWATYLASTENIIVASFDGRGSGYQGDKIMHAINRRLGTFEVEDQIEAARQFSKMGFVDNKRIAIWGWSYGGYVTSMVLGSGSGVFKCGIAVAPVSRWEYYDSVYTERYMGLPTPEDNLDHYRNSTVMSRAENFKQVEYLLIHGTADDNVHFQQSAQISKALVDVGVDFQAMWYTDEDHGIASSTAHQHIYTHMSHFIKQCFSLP
# assay-text: DPP-4 inhibitory activity (Ala-Pro-AFC substrate, fluorometer)
# Type: biochemical
# test-settings: sample concentration 200 μM; read-out: DPP-4 Inhibitory Activity (%)
Binary call on inhibition at 200 µM: Y from 40% upward, N beneath that.

[Q] Exam item: decide whether the reported inhibition at 200 µM for O=c1c(O[C@@H]2OC(CO)[C@@H](O)C(O)C2O[C@@H]2OC(CO)[C@@H](O)C(O)C2O)c(-c2ccc(O)c(O)c2)oc2cc(O)cc(O)c12 (stereo partly shown) is at least 40%.
[A] Y

[Q] Exam item: decide whether the reported inhibition at 200 µM for COc1cc(-c2oc3cc(O)cc(O)c3c(=O)c2O)ccc1O [Isorhamnetin, reference compound] is at least 40%.
[A] N

[Q] Exam item: decide whether the reported inhibition at 200 µM for "C[C@@H]1O[C@@H](OC[C@H]2O[C@@H](Oc3c(-c4ccc(O)c(O)c4)oc4cc(O)cc(O)c4c3=O)[C@H](O[C@@H]3O[C@H](CO)[C@@H](O)[C@H](O)[C@H]3O)[C@@H](O)[C@@H]2O)[C@H](O)[C@H](O)[C@H]1O" is at least 40%.
[A] Y

[Q] Exam item: decide whether the reported inhibition at 200 µM for O=c1c(O[C@@H]2OC(CO)[C@H](O)C(O)C2O[C@@H]2OC(CO)[C@@H](O)C(O)C2O)c(-c2ccc(O)c(O)c2)oc2cc(O)cc(O)c12 (stereo partly shown) is at least 40%.
[A] Y

[Q] Exam item: decide whether the reported inhibition at 200 µM for COc1cc(-c2oc3cc(O)cc(O)c3c(=O)c2O[C@@H]2OC(CO)[C@H](O)C(O)C2O[C@@H]2OC(C)[C@H](O)C(O)C2O)ccc1O (stereo partly shown) is at least 40%.
[A] Y

[Q] Exam item: decide whether the reported inhibition at 200 µM for "C[C@@H]1O[C@@H](OC[C@H]2O[C@@H](Oc3c(-c4ccc(O)c(O)c4)oc4cc(O)cc(O)c4c3=O)[C@H](O[C@@H]3O[C@H](CO)[C@@H](O)[C@H](O)[C@H]3O)[C@@H](O)[C@H]2O)[C@H](O)[C@H](O)[C@H]1O" is at least 40%.
[A] Y

* * *

# assayed-target: α-glucosidase (EC 3.2.1.20, Baker Yeast) (Saccharomyces cerevisiae)
# Sequence (P53341 whole entry): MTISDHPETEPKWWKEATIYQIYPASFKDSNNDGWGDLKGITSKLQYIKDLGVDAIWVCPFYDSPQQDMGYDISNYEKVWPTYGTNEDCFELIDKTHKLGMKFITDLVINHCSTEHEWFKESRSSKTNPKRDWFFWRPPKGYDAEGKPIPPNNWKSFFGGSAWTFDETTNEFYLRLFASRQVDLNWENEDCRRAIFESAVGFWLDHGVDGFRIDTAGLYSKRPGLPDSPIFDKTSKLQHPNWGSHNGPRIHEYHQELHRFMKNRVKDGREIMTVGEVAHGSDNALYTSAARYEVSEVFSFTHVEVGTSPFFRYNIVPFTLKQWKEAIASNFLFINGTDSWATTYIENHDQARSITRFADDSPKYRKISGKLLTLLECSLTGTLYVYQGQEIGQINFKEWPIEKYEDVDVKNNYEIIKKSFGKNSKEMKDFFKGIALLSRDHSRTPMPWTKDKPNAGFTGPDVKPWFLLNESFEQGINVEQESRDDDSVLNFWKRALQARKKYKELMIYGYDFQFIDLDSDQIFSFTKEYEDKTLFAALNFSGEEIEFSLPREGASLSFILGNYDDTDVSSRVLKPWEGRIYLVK
# assay-text: α-glucosidase inhibitory activity (nitrophenol method)
# Format: biochemical
# test-settings: sample concentration 100 μM
assay-endpoint: inhibition at 100 µM (%)
Hi! Could you send only the number? It should be in %, unit omitted.

[Q] What does the data say about its inhibition at 100 µM? Entry: CC1O[C@@H](OC2C(O)[C@@H](O)C(CO)O[C@H]2Oc2c(-c3ccc(O)c(O)c3)oc3cc(O)cc(O)c3c2=O)C(O)C(O)[C@H]1O (stereo partly shown)
[A] 17.6

[Q] What does the data say about its inhibition at 100 µM? Entry: "C[C@@H]1O[C@@H](OC[C@H]2O[C@@H](Oc3c(-c4ccc(O)c(O)c4)oc4cc(O)cc(O)c4c3=O)[C@H](O[C@@H]3O[C@H](CO)[C@@H](O)[C@H](O)[C@H]3O)[C@@H](O)[C@@H]2O)[C@H](O)[C@H](O)[C@H]1O"
[A] 8.7

[Q] What does the data say about its inhibition at 100 µM? Entry: COc1cc(-c2oc3cc(O)cc(O)c3c(=O)c2O[C@@H]2OC(CO)[C@H](O)C(O)C2O[C@@H]2OC(CO)[C@@H](O)C(O)C2O)ccc1O (stereo partly shown)
[A] 26.2

[Q] What does the data say about its inhibition at 100 µM? Entry: "C[C@@H]1O[C@@H](OC[C@H]2O[C@@H](Oc3c(-c4ccc(O)c(O)c4)oc4cc(O)cc(O)c4c3=O)[C@H](O[C@@H]3O[C@H](CO)[C@@H](O)[C@H](O)[C@H]3O)[C@@H](O)[C@H]2O)[C@H](O)[C@H](O)[C@H]1O"
[A] 10.8
